Give measured Solubility, PBS pH 7.4 for each item. Keep answers brief.
assay: PBS solubility; details: pH 7.4
State the answer as a number, implicitly in μM.

### Prompt Tell me measured Solubility, PBS pH 7.4 for `C[C@]1(c2ccc(Cl)cc2Cl)OC[C@@H](COc2ccc(N3CCN(C(=O)Cc4cccc(O)c4)CC3)cc2)O1` please.
### Response 0.13

### Prompt Tell me measured Solubility, PBS pH 7.4 for `C[C@]1(c2ccc(Cl)cc2Cl)OC[C@@H](COc2ccc(N3CCNCC3)cc2)O1` please.
### Response 11.7

### Prompt Tell me measured Solubility, PBS pH 7.4 for `C[C@]1(c2ccc(Cl)cc2Cl)OC[C@@H](COc2ccc(N3CCN(C(=O)CCc4cccc(O)c4)CC3)cc2)O1` please.
### Response 0.03

### Prompt Tell me measured Solubility, PBS pH 7.4 for `C[C@]1(c2ccc(Cl)cc2Cl)OC[C@@H](COc2ccc(N3CCN(C(=O)c4cccc(O)c4)CC3)cc2)O1` please.
### Response 0.17

---

assay: PBS solubility; conditions: pH 4, aqueous buffer
readoutKind: solubility (µM)
State the answer as a number, implicitly in µM.

### Prompt Tell me measured solubility for C[C@]1(c2ccc(Cl)cc2Cl)OCC(COc2ccc(N3CCN(CCCc4cccc(O)c4)CC3)cc2)O1 (stereo partly shown) [Compound 23] please.
### Response 0.13

---

assay: PBS solubility; details: pH 4.0
Give measured Solubility, PBS pH 4.0 for each item. Keep answers brief.
Number plus unit, in that order.

### Prompt Tell me measured Solubility, PBS pH 4.0 for `C[C@]1(c2ccc(Cl)cc2Cl)OC[C@@H](COc2ccc(N3CCNCC3)cc2)O1` please.
### Response 169.3 μM

### Prompt Tell me measured Solubility, PBS pH 4.0 for `C[C@]1(c2ccc(Cl)cc2Cl)OC[C@@H](COc2ccc(N3CCN(C(=O)Cc4cccc(O)c4)CC3)cc2)O1` please.
### Response 0.25 μM

### Prompt Tell me measured Solubility, PBS pH 4.0 for `C[C@]1(c2ccc(Cl)cc2Cl)OC[C@@H](COc2ccc(N3CCN(C(=O)CCc4cccc(O)c4)CC3)cc2)O1` please.
### Response 0.13 μM

### Prompt Tell me measured Solubility, PBS pH 4.0 for `C[C@]1(c2ccc(Cl)cc2Cl)OC[C@@H](COc2ccc(N3CCN(C(=O)c4cccc(O)c4)CC3)cc2)O1` please.
### Response 0.31 μM

---

assay: in vitro; assay type: cell-based, human; details: human
readoutKind: GI50 (µM)
State the answer as a number, implicitly in µM.

### Prompt Tell me measured GI50 for C[C@]1(c2ccc(Cl)cc2Cl)OC[C@@H](COc2ccc(N3CCN(C(=O)CCc4cccc(O)c4)CC3)cc2)O1 [Compound 11] please.
### Response 13.2

---

Give measured Microsomal Stability T1/2 for each item. Keep answers brief.
experiment: Microsomal stability in human liver microsomes; conditions: human liver microsomes
State the answer as a number, implicitly in min.

### Prompt Tell me measured Microsomal Stability T1/2 for C[C@]1(c2ccc(Cl)cc2Cl)OC[C@@H](COc2ccc(N3CCN(C(=O)c4cccc(O)c4)CC3)cc2)O1 [Compound 3] please.
### Response 15.9

### Prompt Tell me measured Microsomal Stability T1/2 for C[C@]1(c2ccc(Cl)cc2Cl)OC[C@@H](COc2ccc(N3CCNCC3)cc2)O1 [Compound 21] please.
### Response 50.7

### Prompt Tell me measured Microsomal Stability T1/2 for C[C@]1(c2ccc(Cl)cc2Cl)OC[C@@H](COc2ccc(N3CCN(C(=O)CCc4cccc(O)c4)CC3)cc2)O1 [Compound 11] please.
### Response 3.2

### Prompt Tell me measured Microsomal Stability T1/2 for C[C@]1(c2ccc(Cl)cc2Cl)OC[C@@H](COc2ccc(N3CCN(C(=O)Cc4cccc(O)c4)CC3)cc2)O1 [Compound 10] please.
### Response 20.4

Origin of measurements: patent US12435067B2
